All values here come from the SangsterLogP compilation.

property_name: logP

See these solved cases before continuing.
Quick one: logP for O=C(O)c1cccc(C(F)(F)F)c1 ? 2.95

Quick one: logP for O=C(O)COc1cccc([N+](=O)[O-])c1 ? 1.37

Quick one: logP for O=C(O)Cc1cccc(Cl)c1 ? 2.09

Quick one: logP for COC(=O)c1cccc(C(=O)O)c1 ? 1.83

Quick one: logP for O=C(O)COc1cccc(S(=O)(=O)C(F)(F)F)c1 ? 2.19

(1) O=C(O)Cc1cccc(O)c1
(2) Cc1cccc(CO)c1
(3) CCCc1cccc(OCC(=O)O)c1
(4) NC(=O)Nc1cccc(OCC(=O)O)c1
Number of compounds to sort: 4. Sort criterion: logP, ascending. Submit the labels in the order that the ranking request calls for. 4, 1, 2, 3
(4: 0.26, 1: 0.85, 2: 1.6, 3: 2.71)

(1) O=C(O)COc1ccccc1I
(2) CC(=O)c1ccccc1OCC(=O)O
(3) Nc1cccc(CO)c1
(4) CCCCc1cccc(OCC(=O)O)c1
(5) CS(=O)(=O)c1cccc(CC(=O)O)c1
Number of compounds to sort: 5. Sort criterion: logP, ascending. Submit the labels in the order that the ranking request calls for. 3, 5, 2, 1, 4

(a) CC(C)c1cccc(OCC(=O)O)c1
(b) O=C(O)COc1cccc(C(=O)O)c1
(c) N#Cc1cccc(O)c1
Please list the entries, largest logP first. Submit the labels in the order that the ranking request calls for. a, c, b
(a: 2.59, c: 1.7, b: 1.11)

(a) O=C(O)COc1cccc(NC(=O)c2ccccc2)c1
(b) Oc1cccc(I)c1
(c) CC(=O)c1cccc(O)c1
Please list the entries, largest logP first. Submit the labels in the order that the ranking request calls for. b, a, c
(b: 2.93, a: 1.99, c: 1.39)

(P) CC(=O)Oc1ccccc1
(Q) O=C(O)COc1cccc(I)c1
# return whichever of P and Q has the smaller logP Refer to your chosen entry by its label in the reply. P
(P: 1.49, Q: 2.44)

(P) O=C(O)COc1cccc(SC(F)(F)F)c1
(Q) O=C(O)COc1cccc(F)c1
Which item exceeds the other in logP, P or Q ? Refer to your chosen entry by its label in the reply. P
(P: 2.86, Q: 1.48)

----------
property_name: logP

Quick one: logP for O=C(O)COc1ccc2c(c1)CCCC2 ? 2.67

Quick one: logP for O=C(O)COc1ccc(C2CCCCC2)cc1 ? 3.79

Quick one: logP for O=C(O)COc1cccc(-c2ccccc2)c1 ? 3.18

(P) CC(C)c1ccc(OCC(=O)O)cc1
(Q) O=[N+]([O-])c1cccc(CO)c1
Which item exceeds the other in logP, P or Q ? Refer to your chosen entry by its label in the reply. P

(a) O=C(O)Cc1cccc(Br)c1
(b) CS(=O)(=O)c1cccc(OCC(=O)O)c1
Which item exceeds the other in logP, a or b ? Refer to your chosen entry by its label in the reply. a

----------
assay: method code SF-C, from DOI: 10.1021/ja01077a028
property_name: logP

See these solved cases before continuing.
Quick one: logP for O=C(O)COc1ccccc1Cl ? 2.02

Quick one: logP for O=C(O)Cc1cccc(F)c1 ? 1.65

Quick one: logP for O=C(O)COc1ccccc1[N+](=O)[O-] ? 1.22

Quick one: logP for O=C(O)Cc1ccccc1F ? 1.5

Quick one: logP for Cc1cccc(CC(=O)O)c1 ? 1.95

(a) O=C(O)Cc1cccc(C(=O)O)c1
(b) O=C(O)COc1ccccc1Br
Which item exceeds the other in logP, a or b ? Refer to your chosen entry by its label in the reply. b
(b: 2.1, a: 1.14)

(A) COc1cccc(CC(=O)O)c1
(B) O=C(O)Cc1cccc(C(F)(F)F)c1
# return whichever of A and B has the smaller logP Refer to your chosen entry by its label in the reply. A
